B1: scFv; the commonest letter at each place (parent)
chain 1: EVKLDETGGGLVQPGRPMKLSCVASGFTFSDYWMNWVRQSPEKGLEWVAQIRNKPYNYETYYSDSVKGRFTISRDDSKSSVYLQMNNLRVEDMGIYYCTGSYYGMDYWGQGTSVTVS
chain 2: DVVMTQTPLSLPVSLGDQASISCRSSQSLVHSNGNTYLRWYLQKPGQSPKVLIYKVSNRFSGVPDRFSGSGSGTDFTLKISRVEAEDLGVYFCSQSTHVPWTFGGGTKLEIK

Variants of: B1
TEST_SUMMARY: Kd (Tite-Seq)
DETAILS: with fluorescein; format: scFv 4-4-20, heavy + light
pKd: −log10 of the molar value.
MEASUREMENT_NAME: pKd

chain 1 M105D W108T
≤ 5.00
chain 1 M105V D106E
≤ 5.00
chain 1 V37N
8.51

Give measured pKd for every item shown.
1. chain 1 G100N G104N
2. chain 1 S30V Y32D
3. chain 1 S30G D31H S101A Y102S D106E W108L
4. chain 1 S30A M34Y
5. chain 1 G104I Y107D

1: ≤ 5.00; 2: ≤ 5.00; 3: 9.45; 4: 8.44; 5: ≤ 5.00

Give measured pKd for every item shown.
1. chain 1 D31T
2. chain 1 T28K S30I
3. chain 1 Y103W Y107W
4. chain 1 G104S Y107T

1. 8.43
2. 8.87
3. 8.02
4. ≤ 5.00

Where do the numbers come from? From the FLAb antibody collection (doi:10.7554/elife.23156).
